# Tested on: 786-0 renal
# PROCEDURE_DETAILS: NCI tumour cell line growth inhibition, 48 h
READOUT_NAME: TGI

Incoming: Report TGI for `CC(/C=C/C(=O)c1sc(-n2nc(-c3ccccc3)cc2-c2ccccc2)nc1C)=C\c1ccccc1`
Outgoing: > 100 µM

Incoming: Give the reported value of TGI for this record: C=CC(CBr)CCC(Br)C(C)(C)Br (stereo not given)
Outgoing: > 10 µM

Incoming: Give me measured TGI, please, for this compound: `Cc1ccc2[nH]c3c(C)c4c(c(C)c3c2c1)CN(C)C=C4`
Outgoing: 10.5 µM

Incoming: Note down TGI recorded for `CS/C(C#N)=C(\C#N)SC`
Outgoing: > 100 µM

Incoming: Please give the documented TGI of `Cc1ccccc1N=CN(C)C`
Outgoing: > 100 µM

Incoming: Return TGI (reported value) for this compound: `c1ccc(CSc2ccccc2CN2CCN(Cc3ccccc3SCc3ccccc3)CCN(Cc3ccccc3SCc3ccccc3)CC2)cc1`
Outgoing: 3.01 µM

Incoming: Return reported TGI. Input compound: `COc1ccc2c(c1)CCN=C2Cc1ccccc1CCCl`
Outgoing: > 100 µM

Incoming: // Input: CCN1C(=O)N(CC)C2C1NN=c1s/c(=C\c3ccccc3F)c(=O)n12 (stereo not given) . Output its TGI only.
Outgoing: 52.8 µM

Incoming: Give the value of TGI reported for the following: CCOC(=O)C1(C#N)C(c2ccccc2)CC(O)(c2ccc([N+](=O)[O-])cc2)C(C(=O)c2ccc([N+](=O)[O-])cc2)C1c1ccccc1 (stereo not given)
Outgoing: > 100 µM

Incoming: Provide TGI value for the following compound: `O=Nc1ccc(O)c2ccccc12`
Outgoing: 12.6 µM

Incoming: Note TGI for the compound shown: `CC1=C(C)CC(C#N)(C#N)C(C#N)(C#N)C1`
Outgoing: > 8.08 µM

Incoming: Return reported TGI. Input compound: `COc1ccccc1-c1cc(/C=C2\C(=O)Nc3ncc(Br)cc32)cc(Br)c1O`
Outgoing: > 25 µM

Incoming: State its TGI for this compound: `O=C1c2sc(-c3ccc(F)cc3)cc2-n2cccc21`
Outgoing: 32.2 µM

Incoming: Write down TGI measured for item N#CC(/C(=N\NC(=O)c1ccncc1)C(=O)Nc1ccc([N+](=O)[O-])cc1[N+](=O)[O-])c1nc(-c2ccc(Br)cc2)cs1 (stereo not given)
Outgoing: > 100 µM

Incoming: Report TGI for `[O-]c1c[n+](CCCC[n+]2cc([O-])on2)no1`
Outgoing: > 100 µM

* * *

# key: entry, value: TGI
# Test system: UO-31 renal
# PROCEDURE_DETAILS: NCI tumour cell line growth inhibition, 48 h

Completed entries (count: 6):
* CNC(=O)c1c(NC(=O)c2ccc(C(F)(F)F)cc2)sc2c1CCC(=O)C2 | 1.4 µM
* C=C(C)CNC(=S)N(N)c1ccc(OC)cc1 | > 100 µM
* CC1=CC=C2c3ccccc3C=CN2C(=O)C1 | > 100 µM
* O=C(/C=C/c1ccc(O)c(O)c1)OC1C[C@@](O)(C(=O)O)C[C@@H](O)[C@H]1OC(=O)/C=C/c1ccc(O)c(O)c1 (stereo partly specified) | > 100 µM
* O=C(Nc1cc2c(=O)[nH]c3ccccc3c2oc1=O)c1cnccn1 | > 100 µM
* NC(=O)NC(=O)CCC(NS(=O)(=O)c1ccccc1)C(=O)NC(N)=O (stereo unspecified) | > 100 µM

Incoming: Provide one value: measured TGI of CC(C)C1C(=O)NC(CO)Cc2c[nH]c3c(C(c4c[nH]c5ccccc45)C(O)CO)ccc(c23)N1C (stereo unspecified)
Outgoing: > 100 µM

Incoming: Look up and state reported TGI for CCCCCCCCCCCCCCCCOCC(CN(C)CCN(C)C)OCCCCCCCCCCCCCCCC (stereo unspecified)
Outgoing: > 100 µM

Incoming: Return the recorded TGI value; entry: `CN(C)C(=S)N1C(=S)N(c2ccccc2)C(=Nc2ccccc2)C1=Nc1ccccc1`
Outgoing: > 100 µM

Incoming: Return TGI for the following molecule: `COc1ccccc1-c1cc(/C=C2\C(=O)Nc3ncc(Br)cc32)cc(Br)c1O`
Outgoing: > 25 µM

Incoming: In one line, give reported TGI of the entry `C=CCCOC(=O)CO[N+](=O)[O-]` .
Outgoing: > 100 µM

* * *

Listing: TGI of selected compounds
# Tested on: HOP-92 NSCLC
# PROCEDURE_DETAILS: NCI tumour cell line growth inhibition, 48 h

Incoming: Give the reported value of TGI for this record: `Cc1cccc(NC(=S)Nc2ccc([N+](=O)[O-])cc2)n1`
Outgoing: > 100 µM

Incoming: Given the compound `O=c1c(-c2ccccc2)c2oc(c1-c1ccccc1)CS(=O)(=O)CCC2` , write its reported TGI.
Outgoing: > 100 µM

Incoming: State its TGI: `Oc1cccc(-c2ccc3c4c2O[C@H]2c5[nH]c6ccccc6c5C[C@@]5(O)[C@@H](C3)N(CC3CC3)CC[C@]425)c1`
Outgoing: 4.42 µM

Incoming: Give the reported TGI for this compound. `C=CC(=O)N1C/C(=C\c2ccccc2)C(=O)/C(=C/c2ccccc2)C1`
Outgoing: 8.64 µM

Incoming: Name the recorded TGI of the item `CCCCOCn1c(=O)[nH]c(=O)c2ccccc21` in your answer.
Outgoing: > 100 µM

Incoming: Read the entry `C/C1=C/C(=O)O[C@@H]2C[C@@H](CC[C@H](C)/C=C\C=C\CC1)O[C@@](O)([C@@H]1CSC(=O)N1CO)C2` and write its reported TGI.
Outgoing: 0.0614 µM

Incoming: Answer with the recorded TGI of O=C1OC2C(O)COC2(O)C1(O)C(C[N+](=O)[O-])c1ccc(Cl)cc1 (stereo unspecified) only.
Outgoing: 54.2 µM

Incoming: Supply TGI value. Item: `Cc1cc(N)ccc1N=Nc1ccc(S(=O)(=O)CCOS(=O)(=O)O)cc1`
Outgoing: 19.5 µM

Incoming: Specify TGI for CC(=O)OCC1OC(n2c(C#N)cc(=O)[nH]c2=O)CC1OC(C)=O (stereo unspecified) and stop.
Outgoing: > 100 µM

* * *

# Test system: U251 CNS
Hi! Could you answer with just one of these? active, inactive

* C[C@H](N)C(=O)N[C@@H]1[C@H]2C(=C(O)C[C@@H](O)[C@@H]2O)C(=O)O[C@]1(C)C(Cl)Cl | active
* O=Cc1ccc(-c2ccc(-c3nc4ccccc4[nH]3)cc2)s1 | inactive
* CCCCCCCCCCCCNC(=O)[C@H]1CSC(c2cc3ccccc3s2)N1 (stereo not given in full) | inactive
* O=Nc1ccc(O)c2ccccc12 | inactive

Then there is this molecule:
Incoming: Please indicate how the test categorized `C/C1=C/C(=O)O[C@@H]2C[C@@H](CC[C@H](C)/C=C\C=C\CC1)O[C@@](O)([C@@H]1CSC(=O)N1CO)C2` .
Outgoing: active

* * *

# System: OVCAR-4 ovarian
# PROCEDURE_DETAILS: NCI tumour cell line growth inhibition, 48 h
READOUT_NAME: TGI

Before answering, review these 2 worked examples.
• CCOC(CCCNCCCn1c2c(c3cc(OC)c(OC)cc3c1=O)C(=O)c1cc3c(cc1-2)OCO3)OCC = 13.1 µM
• COc1cc(OC)c2ssc3c(OC)cc(OC)c4ssc1c2-c43 = > 100 µM

Incoming: Indicate its recorded TGI; the molecule in question is `Cc1nc2ccccn2c1NC(=O)NNC(=S)Nc1ccc(Br)cc1`
Outgoing: > 100 µM

* * *

# Tested on: KM12 colon
# PROCEDURE_DETAILS: NCI tumour cell line growth inhibition, 48 h
Reported values of GI50 for individual entries

Examples with answers:
- COc1ccc(-c2nsc3c2NC(=O)CC3c2ccc(F)cc2)cc1 (stereo not given): 3.13 µM
- Nc1ccccc1SC(CC(=O)c1ccccc1)c1ccc([N+](=O)[O-])cc1 (stereo not given): 3.86 µM
- N.N.N.N.O=NN1CCCCCC1(P(=O)([O-])[O-])P(=O)([O-])[O-].[Pt+4].[Pt+4]: > 100 µM
- O=C(CSc1nc2ccccc2nc1-c1ccccc1)Nc1ccc(Cl)cc1: 59.4 µM
- CN(C)CCCNC(=O)c1ccc2oc3cc4ccccc4c(=O)n3c2c1: 18.5 µM
- O=C(N/N=C/c1ccccc1O)C(O)(c1ccccc1)c1ccccc1: 9.93 µM
- C=CC(=O)N1C/C(=C\c2ccccc2)C(=O)/C(=C/c2ccccc2)C1: 0.443 µM
- COc1ccc(CCN2CCCN3C2=Nc2ccccc2S3(=O)=O)cc1: 0.451 µM
- NC(=O)C1c2ccccc2C=Cc2ccccc21: > 100 µM

Next up:
Incoming: Quick one: give measured GI50 for C[C@@H](N)C1CCC(C(=O)Nc2ccncc2)CC1 (stereo not given in full)
Outgoing: > 100 µM

* * *

Measured TGI of individual entries
# Tested on: NCI-H23 lung
# PROCEDURE_DETAILS: NCI tumour cell line growth inhibition, 48 h

Look over these answered cases.
- COC(=O)C(=O)C(C(=O)C1=NS(=O)(=O)c2cc(S(N)(=O)=O)c(Cl)cc2N1)c1nc2ccc(C(=O)c3ccccc3)cc2[nH]c1=O (stereo not drawn): > 100 µM
- COc1cccc(NC(=O)C(C)(C)C)c1C=O: > 100 µM

Incoming: Give TGI; test system NCI-H23 lung; compound `COC(=O)[C@H]1C(=O)[C@@]2(C)[C@H]([C@H](OC(=O)c3ccccc3)[C@]3(O)C[C@H](OC(=O)[C@H](O)[C@@H](NC(=O)c4ccc(F)cc4)c4ccccc4)C(C)=C1C3(C)C)[C@]1(OC(C)=O)CO[C@@H]1C[C@@H]2O`
Outgoing: > 25 µM
